Target under test: human α2β1 sGC isozyme (Homo sapiens, UniProt P33402+Q02153)
Sequence (P33402 whole entry): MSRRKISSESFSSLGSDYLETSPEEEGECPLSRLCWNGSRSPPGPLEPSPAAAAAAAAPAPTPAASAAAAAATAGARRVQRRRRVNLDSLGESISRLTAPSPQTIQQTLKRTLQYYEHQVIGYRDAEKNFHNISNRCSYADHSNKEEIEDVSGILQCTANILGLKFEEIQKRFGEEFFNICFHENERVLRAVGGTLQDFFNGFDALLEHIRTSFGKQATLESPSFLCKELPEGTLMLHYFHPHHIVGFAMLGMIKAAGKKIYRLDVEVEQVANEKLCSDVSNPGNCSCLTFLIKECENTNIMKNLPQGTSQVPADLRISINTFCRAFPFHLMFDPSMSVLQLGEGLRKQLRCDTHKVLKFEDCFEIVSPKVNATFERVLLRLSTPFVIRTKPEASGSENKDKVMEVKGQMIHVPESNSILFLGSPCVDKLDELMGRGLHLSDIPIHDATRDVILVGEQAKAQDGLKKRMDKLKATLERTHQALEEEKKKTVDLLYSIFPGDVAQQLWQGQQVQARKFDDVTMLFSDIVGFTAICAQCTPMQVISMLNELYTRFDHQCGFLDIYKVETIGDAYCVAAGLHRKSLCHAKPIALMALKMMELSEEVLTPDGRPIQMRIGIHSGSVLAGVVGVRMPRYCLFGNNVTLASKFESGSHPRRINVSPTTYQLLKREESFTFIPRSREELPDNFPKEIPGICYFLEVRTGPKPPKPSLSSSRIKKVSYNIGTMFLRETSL
Sequence (Q02153 whole entry): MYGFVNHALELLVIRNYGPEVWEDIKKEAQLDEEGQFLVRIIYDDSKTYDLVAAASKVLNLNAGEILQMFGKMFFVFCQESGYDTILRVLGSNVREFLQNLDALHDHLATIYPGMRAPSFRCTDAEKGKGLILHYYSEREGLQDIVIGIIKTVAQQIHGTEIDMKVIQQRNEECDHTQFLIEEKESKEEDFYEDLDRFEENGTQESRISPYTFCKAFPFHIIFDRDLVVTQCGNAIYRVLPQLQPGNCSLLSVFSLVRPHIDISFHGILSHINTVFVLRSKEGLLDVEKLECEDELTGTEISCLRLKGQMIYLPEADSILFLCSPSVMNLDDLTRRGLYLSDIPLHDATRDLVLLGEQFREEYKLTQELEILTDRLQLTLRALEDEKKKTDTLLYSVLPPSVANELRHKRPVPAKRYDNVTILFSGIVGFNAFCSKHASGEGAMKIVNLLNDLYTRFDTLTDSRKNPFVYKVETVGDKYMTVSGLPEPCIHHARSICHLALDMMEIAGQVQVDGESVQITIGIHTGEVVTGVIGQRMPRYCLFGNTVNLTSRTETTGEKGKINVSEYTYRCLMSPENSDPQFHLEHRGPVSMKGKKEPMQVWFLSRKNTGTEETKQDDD
Run description: cGMP assay on human α2β1 sGC isozyme stably expressed in CHO-K1 cells
Assay context: 10 μM DETA-NONOate, 20 min, cGMP content, geometrical mean
pEC50: −log10 of the molar value.
Test readout: pEC50

Query string: Which value of pEC50 has been reported for Cc1cc(F)c(Cc2nc(-c3ncc(F)c(O)n3)cn3ccnc23)cc1F [Compound I-14] in the records?
Result string: ≥ 7.00

Data origin, for the record: patent US20240208979A1
